System: Hs578T complex spheroid growth, percent test/control
Experiment: Anticancer human tumor Hs578T cell line growth inhibition [AhR]; active = viability on the fitted dose curve at most 10% of control; inactive = the rest
Details: second compound 10 µM; first compound 0.003 µM
Give one outcome, nothing more. List: active, inactive

Please review the following examples before continuing.
compound: CCc1c2c(nc3ccc(O)cc13)-c1cc3c(c(=O)n1C2)COC(=O)[C@]3(O)CC + CC(CO)NC(=O)c1cc(-c2ccc(Cl)cc2)nn(-c2cnn(C)c2)c1=O
labelValue: inactive
//
compound: Nc1ncn(C2CC(O)C(CO)S2)c(=O)n1 (stereo not drawn) + Cc1cncc(-c2nc(NCCc3c[nH]c4ccccc34)c3ncn(C(C)C)c3n2)c1
labelValue: active

# input for lookup
What classification did Nc1ncn(C2CC(O)C(CO)S2)c(=O)n1 (stereo not drawn) + CC(CO)NC(=O)c1cc(-c2ccc(Cl)cc2)nn(-c2cnn(C)c2)c1=O end up with in this test?
inactive

* * *

Test system: Hs578T complex spheroid growth, percent test/control
Test: Anticancer human tumor Hs578T cell line growth inhibition [AhR]
Conditions: second compound 10 µM; first compound 0.00949 µM; stronger effect = lower value
What viability, T/C was measured for each of the following?
One number for each entry, in %.

compound: CCN(c1cc(-c2ccc(CN3CCOCC3)cc2)cc(C(=O)NCc2c(C)cc(C)[nH]c2=O)c1C)C1CCOCC1 + Cc1ccccc1N=Nc1ccc(NC(=O)c2ccnn2C)c(C)c1
viability, T/C [%]: 63.9
//
compound: CC(C)CC(NC(=O)C(Cc1ccccc1)NC(=O)c1cnccn1)B(O)O (stereo unspecified) + Cc1cncc(-c2nc(NCCc3c[nH]c4ccccc34)c3ncn(C(C)C)c3n2)c1
viability, T/C [%]: 1.16
//
compound: Nc1ncn(C2CC(O)C(CO)S2)c(=O)n1 (stereo unspecified) + CC(CO)NC(=O)c1cc(-c2ccc(Cl)cc2)nn(-c2cnn(C)c2)c1=O
viability, T/C [%]: 112
//
compound: CCc1c2c(nc3ccc(O)cc13)-c1cc3c(c(=O)n1C2)COC(=O)[C@]3(O)CC + Cc1cncc(-c2nc(NCCc3c[nH]c4ccccc34)c3ncn(C(C)C)c3n2)c1
viability, T/C [%]: 4.95
//
compound: CC(C)CC(NC(=O)C(Cc1ccccc1)NC(=O)c1cnccn1)B(O)O (stereo unspecified) + CC(CO)NC(=O)c1cc(-c2ccc(Cl)cc2)nn(-c2cnn(C)c2)c1=O
viability, T/C [%]: 11.6

Next up:
Please list viability, T/C recorded for the compound O=C(C=Cn1cnc(-c2cc(C(F)(F)F)cc(C(F)(F)F)c2)n1)NNc1cnccn1 + Cc1ccccc1N=Nc1ccc(NC(=O)c2ccnn2C)c(C)c1
68

* * *

Tested on: Hs578T complex spheroid growth, percent test/control
Experiment: Anticancer human tumor Hs578T cell line growth inhibition [AhR];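 note: luminescent viability signal as a proxy for spheroid growth; spheroids exposed to agents for one week after three days of growth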
Settings: second compound 3.16 µM; first compound 3 µM; stronger effect = lower value
Text: Multicellular complex tumor spheroid response to aryl hydrocarbon receptor antagonists in combination with a variety of drugs and investigational agents in selected tumor cell lines […] Compounds. […] If the clinical Cmax for an agent had not been determined, the highest concentration tested was 10 microM (Table 1). […]
valueType: viability, T/C (%)
Answers are plain numbers, in %.

Each of the following entries comes with a recorded value; kindly state viability, T/C for each.
1. CCN(c1cc(-c2ccc(CN3CCOCC3)cc2)cc(C(=O)NCc2c(C)cc(C)[nH]c2=O)c1C)C1CCOCC1 + Cc1ccccc1N=Nc1ccc(NC(=O)c2ccnn2C)c(C)c1
2. O=C(C=Cn1cnc(-c2cc(C(F)(F)F)cc(C(F)(F)F)c2)n1)NNc1cnccn1 + Cc1ccccc1N=Nc1ccc(NC(=O)c2ccnn2C)c(C)c1
3. CCN(c1cc(-c2ccc(CN3CCOCC3)cc2)cc(C(=O)NCc2c(C)cc(C)[nH]c2=O)c1C)C1CCOCC1 + Cc1cncc(-c2nc(NCCc3c[nH]c4ccccc34)c3ncn(C(C)C)c3n2)c1

82.7
13
51.7

* * *

System: Hs578T complex spheroid growth, percent test/control
Assay: Anticancer human tumor Hs578T cell line growth inhibition [AhR];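 note: luminescent viability signal as a proxy for spheroid growth; spheroids exposed to agents for one week after three days of growth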
Conditions: second compound 1 µM; first compound 0.0316 µM; stronger effect = lower value
valueType: viability, T/C (%)
Numbers only, in %.

Answered examples (3):
molecule: Nc1ncn(C2CC(O)C(CO)O2)c(=O)n1 (stereo unspecified) + CC(CO)NC(=O)c1cc(-c2ccc(Cl)cc2)nn(-c2cnn(C)c2)c1=O
outputUnit: %
viability, T/C: 103
--
molecule: COc1cccc2c1C(=O)c1c(O)c3c(c(O)c1C2=O)CC(O)(C(=O)CO)CC3OC1CC(N)C(O)C(C)O1 (stereo unspecified) + Cc1cncc(-c2nc(NCCc3c[nH]c4ccccc34)c3ncn(C(C)C)c3n2)c1
outputUnit: %
viability, T/C: 92.9
--
molecule: COc1ccc([C@@H](O)c2cc(-c3ncnc4cc(N5CCOCC5)ccc34)c(F)cc2Cl)nn1 + CC(CO)NC(=O)c1cc(-c2ccc(Cl)cc2)nn(-c2cnn(C)c2)c1=O
outputUnit: %
viability, T/C: 117

Each of the following entries comes with a recorded value; kindly state viability, T/C for each.
1. O=C(c1cc(Cc2n[nH]c(=O)c3ccccc23)ccc1F)N1CCN(C(=O)C2CC2)CC1 + Cc1cncc(-c2nc(NCCc3c[nH]c4ccccc34)c3ncn(C(C)C)c3n2)c1
2. COc1ccc([C@@H](O)c2cc(-c3ncnc4cc(N5CCOCC5)ccc34)c(F)cc2Cl)nn1 + Cc1ccccc1N=Nc1ccc(NC(=O)c2ccnn2C)c(C)c1
3. Nc1ccccc1NC(=O)c1ccc(CNC(=O)OCc2cccnc2)cc1 + CC(CO)NC(=O)c1cc(-c2ccc(Cl)cc2)nn(-c2cnn(C)c2)c1=O

107
107
121

* * *

System: Hs578T complex spheroid growth, percent test/control
Assay: Anticancer human tumor Hs578T cell line growth inhibition [AhR];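 note: luminescent viability signal as a proxy for spheroid growth; spheroids exposed to agents for one week after three days of growth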
Conditions: second compound 1 µM; first compound 0.0316 µM; stronger effect = lower value
valueType: viability, T/C (%)
One number for each entry, in %.

Answered examples (5):
compound: CC(C)c1c(-c2ccccc2)nc2c(C#N)c[nH]n2c1=O + Cc1ccccc1N=Nc1ccc(NC(=O)c2ccnn2C)c(C)c1
valueType: viability, T/C
outputUnit: %
endpointResult: 103
//
compound: CC1COCCN1c1cc(-c2ccnn2C)c2ccnc(-c3ccn[nH]3)c2n1 (configuration not stated) + Cc1ccccc1N=Nc1ccc(NC(=O)c2ccnn2C)c(C)c1
valueType: viability, T/C
outputUnit: %
endpointResult: 109
//
compound: O=C(c1cc(Cc2n[nH]c(=O)c3ccccc23)ccc1F)N1CCN(C(=O)C2CC2)CC1 + Cc1ccccc1N=Nc1ccc(NC(=O)c2ccnn2C)c(C)c1
valueType: viability, T/C
outputUnit: %
endpointResult: 104
//
compound: Nc1ncn(C2CC(O)C(CO)O2)c(=O)n1 (configuration not stated) + Cc1cncc(-c2nc(NCCc3c[nH]c4ccccc34)c3ncn(C(C)C)c3n2)c1
valueType: viability, T/C
outputUnit: %
endpointResult: 112
//
compound: COc1cc(Nc2ncc3c(n2)-c2ccc(Cl)cc2C(c2c(F)cccc2OC)=NC3)ccc1C(=O)O + CC(CO)NC(=O)c1cc(-c2ccc(Cl)cc2)nn(-c2cnn(C)c2)c1=O
valueType: viability, T/C
outputUnit: %
endpointResult: 102

Each of the following entries comes with a recorded value; kindly state viability, T/C for each.
1. COc1cc(Nc2ncc3c(n2)-c2ccc(Cl)cc2C(c2c(F)cccc2OC)=NC3)ccc1C(=O)O + Cc1ccccc1N=Nc1ccc(NC(=O)c2ccnn2C)c(C)c1
2. O=C(c1cc(Cc2n[nH]c(=O)c3ccccc23)ccc1F)N1CCN(C(=O)C2CC2)CC1 + CC(CO)NC(=O)c1cc(-c2ccc(Cl)cc2)nn(-c2cnn(C)c2)c1=O
3. CC1COCCN1c1cc(-c2ccnn2C)c2ccnc(-c3ccn[nH]3)c2n1 (configuration not stated) + Cc1cncc(-c2nc(NCCc3c[nH]c4ccccc34)c3ncn(C(C)C)c3n2)c1
4. CC1COCCN1c1cc(-c2ccnn2C)c2ccnc(-c3ccn[nH]3)c2n1 (configuration not stated) + CC(CO)NC(=O)c1cc(-c2ccc(Cl)cc2)nn(-c2cnn(C)c2)c1=O
5. CC1(C)CCC(CN2CCN(c3ccc(C(=O)NS(=O)(=O)c4ccc(NCC5CCOCC5)c([N+](=O)[O-])c4)c(Oc4cnc5[nH]ccc5c4)c3)CC2)=C(c2ccc(Cl)cc2)C1 + CC(CO)NC(=O)c1cc(-c2ccc(Cl)cc2)nn(-c2cnn(C)c2)c1=O
6. CC1COCCN1c1cc(C2(S(C)(=N)=O)CC2)nc(-c2ccnc3[nH]ccc23)n1 (configuration not stated) + Cc1ccccc1N=Nc1ccc(NC(=O)c2ccnn2C)c(C)c1
7. COc1cc(C2c3cc4c(cc3C(OC3OC5COC(C)OC5C(O)C3O)C3COC(=O)C23)OCO4)cc(OC)c1O (configuration not stated) + Cc1ccccc1N=Nc1ccc(NC(=O)c2ccnn2C)c(C)c1

86
106
103
122
115
94.6
92.6

* * *

Test system: Hs578T complex spheroid growth, percent test/control
Assay: Anticancer human tumor Hs578T cell line growth inhibition [AhR];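 note: luminescent viability signal as a proxy for spheroid growth; spheroids exposed to agents for one week after three days of growth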
Conditions: second compound 1 µM; first compound 0.949 µM; stronger effect = lower value
valueType: viability, T/C (%)
Answers are plain numbers, in %.

Answered examples (2):
compound: CCN(c1cc(-c2ccc(CN3CCOCC3)cc2)cc(C(=O)NCc2c(C)cc(C)[nH]c2=O)c1C)C1CCOCC1 + Cc1cncc(-c2nc(NCCc3c[nH]c4ccccc34)c3ncn(C(C)C)c3n2)c1
viability, T/C, %: 105
//
compound: O=C(C=Cn1cnc(-c2cc(C(F)(F)F)cc(C(F)(F)F)c2)n1)NNc1cnccn1 + Cc1cncc(-c2nc(NCCc3c[nH]c4ccccc34)c3ncn(C(C)C)c3n2)c1
viability, T/C, %: 17.2

Please list viability, T/C recorded for the compound O=C(C=Cn1cnc(-c2cc(C(F)(F)F)cc(C(F)(F)F)c2)n1)NNc1cnccn1 + Cc1ccccc1N=Nc1ccc(NC(=O)c2ccnn2C)c(C)c1
10.4

Cited source for all entries: PubChem BioAssay AID1919010
